parameter: melting point

In [3]: df
Out[3]:
                                   compound      parameter   assay_result
0                        CN1NCc2c(Cl)ncnc21  melting point    97 to 99 °C
1  O=C(O)C/C(C(=O)O)=C(\CCCCCCCCCCCCCCCCOS(=O)(=O)O)C(=O)O  melting point    63 to 65 °C
2  NC(=S)c1ncn2c1[C@@H]1CCN1C(=O)c1ccccc1-2  melting point  227 to 230 °C
3  CCOC(=O)c1nn(-c2ccccc2C)c(=O)c2c(N)scc12  melting point  209 to 210 °C

Ask: Which melting point is reported for this compound? COC(=O)COc1cccc2c1c(C(=O)C(N)=O)c(C)n2Cc1ccccc1
Result: 202 to 215 °C

Ask: Which melting point is reported for this compound? CS(=O)(=O)c1nccc(Oc2ccc(NC(=O)c3cc(F)cc(N4CCOCC4)c3)c3ccccc23)n1
Result: 173 to 175 °C

Ask: Which melting point is reported for this compound? CN1C(=O)NC(Cc2c[nH]c3ccccc23)C1CCc1cc(C(F)(F)F)cc(C(F)(F)F)c1 (stereo not given)
Result: 191 °C

Ask: Which melting point is reported for this compound? COc1cc(C)nc2c(OCc3c(Cl)ccc(N)c3Cl)cccc12
Result: > 250 °C

Ask: Which melting point is reported for this compound? O=P(O)(O)CCCCc1ccccc1
Result: 88 to 90 °C

Ask: Which melting point is reported for this compound? N#CCC(=O)Nc1cc(Cl)c(Cl)cc1[N+](=O)[O-]
Result: 156 to 158 °C
